The following molecules each carry a recorded Ki for Carbonic anhydrase 1 (Homo sapiens, UniProt P00915).
Give bare numbers, in µM.

NS(=O)(=O)Nc1ccc(NC(=O)NCc2ccco2)cc1: 6.66

Then there is this molecule:
QUERY: Query Ki for "COc1ccc(NC(=O)Nc2ccc(NS(N)(=O)=O)cc2)c(C)c1"
RESULT: 3.42
